Target: Prostaglandin D2 receptor (Homo sapiens, UniProt Q13258)
Sequence (Q13258 whole entry): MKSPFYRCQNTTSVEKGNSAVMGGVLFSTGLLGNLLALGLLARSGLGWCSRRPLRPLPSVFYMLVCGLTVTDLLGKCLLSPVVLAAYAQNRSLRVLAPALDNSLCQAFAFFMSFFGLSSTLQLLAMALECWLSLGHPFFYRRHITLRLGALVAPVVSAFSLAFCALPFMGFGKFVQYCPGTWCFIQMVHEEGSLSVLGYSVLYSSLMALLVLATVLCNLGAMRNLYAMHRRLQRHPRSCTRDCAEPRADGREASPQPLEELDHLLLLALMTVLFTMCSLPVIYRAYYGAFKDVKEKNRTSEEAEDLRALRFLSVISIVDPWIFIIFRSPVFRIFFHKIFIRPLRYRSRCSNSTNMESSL
Assay: Binding affinity against human recombinant […] D2 in presence of 0.5% human serum albumin
pKi: −log10 of the molar value.
parameter: pKi

In [3]: df
Out[3]:
                                   compound  observed_value
0  COC(=O)c1ccc(C[S+]([O-])c2nc3ccccc3n2Cc2ccc(Cl)cc2)cc1 (configuration not stated)            5.82

I = COC(=O)c1ccc(CCc2nc3ccccc3n2Cc2ccc(Cl)cc2)cc1
II = COC(=O)c1ccc(CSc2nc3ccccc3n2Cc2ccc(Cl)cc2)cc1
Input: # returns the entry with the larger pKi; inputs I and II Response format: the label of the selected entry.
Output: I
(I: 6.86, II: 6.53)

I = COC(=O)c1ccc(-c2nc3ccccc3n2Cc2ccc(Cl)cc2)cc1
II = COC(=O)c1ccc(Nc2nc3ccccc3n2Cc2ccc(Cl)cc2)cc1
III = COC(=O)c1ccc(/C=C/c2nc3ccccc3n2Cc2ccc(Cl)cc2)cc1
Input: Returns the items ordered by pKi, from maximum to minimum. Respond with an ordered listing of the labels, as requested.
Output: III, I, II
(III: 7.17, I: 6.10, II: 5.27)
